Let's look at some compounds and their measured %Inh.
- System: WNK2
- experimental-setup: concentration: 1 μM, replicates: in singlicate; n = 1;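 further: KINOMEscan kinase panel screen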
Please report the result as a number followed by the unit.

| compound | target-or-system | %Inh |
| --- | --- | --- |
| CN(C(=O)c1ccc(-c2cc(-c3c[nH]nc3-c3ccccn3)ccn2)cc1)C1CCOCC1 [GW810083] | WNK2 | 0% |
| CCc1ccnc(/C=C/c2n[nH]c3cc(Sc4ccccc4C(=O)NC)ccc23)c1 | WNK2 | 39% |
| O=C(NCCNc1ccnc(Nc2ccc(F)cc2)n1)Nc1ccccc1F [GSK1379880] | WNK2 | 0% |
| CN(C1=C(c2ccccc2)C(=O)NC1=O)c1ccccc1 [SB-334860] | WNK2 | 28% |
| Fc1ccc(-c2ncn(CCCN3CCOCC3)c2-c2ccccn2)cc1 [SB-211742] | WNK2 | 0% |
| Cn1cc(-c2ccc3c(c2)CCN3C(=O)Cc2ccccc2Cl)c2c(N)ncnc21 [GSK2608885] | WNK2 | 17% |

stdin: Fill blank: measured %Inh of the compound CCn1cnc2c(N)ncnc21 [GW345098] is ____.
stdout: 0%

stdin: Also need Cc1cccc(-c2nc(Nc3ccc4ncsc4c3)c3ccccc3n2)n1 [GW867588] , thanks.
stdout: 6%

stdin: Also need CCCCCc1nc2c(N)ncnc2n1CCCCC [SKF-97255] , thanks.
stdout: 0%

stdin: Also need O=c1cc(N2CCOCC2)nc2n(Cc3cccc(Cl)c3Cl)c(C3CC3)nn12 [GSK2358994] , thanks.
stdout: 0%

====

- Test system: YANK3
- Construct: gene STK32C
- experimental-setup: concentration: 1 μM, replicates: in singlicate; n = 1
Let's look at some molecules and their measured %Inh.
Quick reminder: number only, in %, skip the unit.

In the examples that follow, each entry is paired with its recorded %Inh.
| molecule | unit-of-measure | %Inh |
| --- | --- | --- |
| Cc1nnc(-c2ccc3occ(-c4ccc(C(C)O)cc4)c3c2)o1 (centres unmarked) | % | 0 |
| CSc1ccc(-c2cc3ncnc(SCC(=O)O)c3s2)cc1 | % | 0 |
| O=c1cc(N2CCOCC2)nc2n(Cc3cccc(C(F)(F)F)c3)ccn12 | % | 0 |
| Cn1cc(-c2ccc3c(c2)CCN3C(=O)Cc2ccccc2Cl)c2c(N)ncnc21 | % | 23 |

Turning now to a further molecule:
stdin: Fill blank: measured %Inh of the molecule "O=C(NCCNc1ccnc(Nc2ccc(F)cc2)n1)c1cc2ccccc2s1" is ____.
stdout: 8

====

- Test system: SRPK3
- experimental-setup: concentration: 1 μM, replicates: in singlicate; n = 1
measured-parameter: %Inh (%)
Quick reminder: number only, in %, skip the unit.

In the examples that follow, each entry is paired with its recorded %Inh.
| compound | measured-parameter | recorded-measurement |
| --- | --- | --- |
| O=C(c1ccc(-c2cc(-c3c[nH]nc3-c3ccccn3)ccn2)cc1)N1CCOCC1 [GW812171] | %Inh | 4 |
| O=c1cc(N2CCOCC2)nc2n(Cc3cccc(Cl)c3Cl)c(C3CC3)nn12 [GSK2358994] | %Inh | 0 |
| CN1c2ccc(NCc3ccc(F)cc3)cc2-c2c(cnn2C)S1(=O)=O | %Inh | 0 |
| COc1cc2c(cc1OCCN1CCN(C)CC1)ncc1c3ccc(C#N)cc3[nH]c21 | %Inh | 0 |
| CCCCCc1nc2c(N)ncnc2n1CCCCC [SKF-97255] | %Inh | 0 |

stdin: Fill blank: measured %Inh of the compound NS(=O)(=O)CCc1cccc(Nc2nccc(-c3c(-c4cccc(NC(=O)c5c(F)cccc5F)c4)nn4ccccc34)n2)c1 [GSK336735] is ____.
stdout: 55

stdin: Also need COc1ccc(S(=O)(=O)NC2CCN(c3cc(C)nc(Nc4cccc(C#N)c4)n3)CC2)cc1.O=C(O)C(F)(F)F [GSK1653539] , thanks.
stdout: 0

stdin: Also need O=C(NCCNc1ccnc(Nc2ccc(F)cc2)n1)c1cc2ccccc2s1 [GSK1379874] , thanks.
stdout: 0

====

- Tested on: CDKL2
- experimental-setup: concentration: 1 μM, replicates: in singlicate; n = 1
Let's look at some molecules and their measured %Inh.
Quick reminder: number only, in %, skip the unit.

stdin: Fill blank: measured %Inh of the molecule "CNc1ncnc2[nH]ncc12" is ____.
stdout: 30

====

- Test system: PRKCD
- experimental-setup: concentration: 1 μM, replicates: in singlicate; n = 1
Let's look at some compounds and their measured %Inh.
Please report the result as a number followed by the unit.

In the examples that follow, each entry is paired with its recorded %Inh.
| compound | target-or-system | measured-parameter | recorded-measurement |
| --- | --- | --- | --- |
| CC(=O)Nc1ccc(COc2ccc(Nc3ccnc4cc(-c5ccccn5)ccc34)cc2)cc1.Cl | PRKCD | %Inh | 0% |
| NS(=O)(=O)CCc1cccc(Nc2nccc(-c3c(-c4cccc(NC(=O)c5c(F)cccc5F)c4)nn4ccccc34)n2)c1 | PRKCD | %Inh | 40% |
| CN(C1=C(c2ccccc2)C(=O)NC1=O)c1ccccc1 | PRKCD | %Inh | 0% |
| CCn1cnc2c(N)ncnc21 | PRKCD | %Inh | 0% |
| C[C@@H](Oc1cc(-n2cnc3ccc(NC(=O)NC(C)(C)C)cc32)sc1C(N)=O)c1ccccc1Cl | PRKCD | %Inh | 5% |
| Cc1nnc(-c2ccc3occ(-c4ccc(C(C)O)cc4)c3c2)o1 (centres unmarked) | PRKCD | %Inh | 11% |
| O=C(NOCC1CC1)c1ccc(F)c(F)c1Nc1ccc(I)cc1Cl | PRKCD | %Inh | 3% |
| Cl.Nc1ncnc2occ(-c3ccc(NC(=O)Nc4cc(C(F)(F)F)ccc4F)cc3)c12 | PRKCD | %Inh | 27% |
| COC(=O)Nc1nc2cc(Oc3ccc(NC(=O)Nc4cc(F)ccc4F)cc3)ccc2[nH]1.Cl | PRKCD | %Inh | 0% |
| O=C(NCCNc1ccnc(Nc2ccc(F)cc2)n1)c1cc2ccccc2s1 | PRKCD | %Inh | 0% |

stdin: Fill blank: measured %Inh of the compound "COc1cc2c(cc1OC[C@@H](O)CO)ncc1c3ccc(C#N)cc3[nH]c21" is ____.
stdout: 5%

stdin: Also need "N#Cc1ccc(-c2cc(-c3c[nH]nc3-c3ccccn3)ccn2)cc1" , thanks.
stdout: 0%

====

Let's look at some molecules and their measured %Inh.
- System: IKK-beta
- Construct: gene IKBKB
- experimental-setup: concentration: 1 μM, replicates: in singlicate; n = 1
Please report the result as a number followed by the unit.

In the examples that follow, each entry is paired with its recorded %Inh.
| molecule | %Inh |
| --- | --- |
| Cc1nnc(-c2ccc3ncc(-c4ccc(S(C)=O)cc4)n3c2)o1 (centres unmarked) | 21% |
| NS(=O)(=O)c1cccc(-c2ccc3ncc(N4CCOCC4)nc3c2)c1 [GSK1535721] | 0% |
| Fc1ccc(-c2ncn(CCCN3CCOCC3)c2-c2cccnc2)cc1 [SB-211743] | 0% |

stdin: Fill blank: measured %Inh of the molecule COc1cc2ncn(-c3cc(OCc4sccc4Cl)c(C(N)=O)s3)c2cc1OC [GSK448459] is ____.
stdout: 0%

stdin: Also need "COc1cc2c(cc1OCCN1CCN(C)CC1)ncc1c3ccc(C#N)cc3[nH]c21" , thanks.
stdout: 29%

====

Let's look at some molecules and their measured %Inh.
- Tested on: MEK3
- Construct: gene MAP2K3
- experimental-setup: concentration: 1 μM, replicates: in singlicate; n = 1
Quick reminder: number only, in %, skip the unit.

stdin: Fill blank: measured %Inh of the molecule COc1ccc(Nc2nccc(N3CCC(NC(=O)Nc4cccc(C(C)=O)c4)C3)n2)cc1 (stereo not drawn) is ____.
stdout: 0

stdin: Also need "COc1ccc(COc2cc(-n3cnc4ccccc43)sc2C(N)=O)cc1" , thanks.
stdout: 0

stdin: Also need "O=C(NOCC1CC1)c1ccc(F)c(F)c1Nc1ccc(I)cc1Cl" , thanks.
stdout: 0

stdin: Also need "O=C1Cc2cc(Nc3nc(NCc4cccc(S(=O)(=O)C(F)(F)F)c4)ncc3C(F)(F)F)ccc2N1" , thanks.
stdout: 15

====

- Tested on: ANKK1
- experimental-setup: concentration: 1 μM, replicates: in singlicate; n = 1
measured-parameter: %Inh
Please report the result as a number followed by the unit.

In the examples that follow, each entry is paired with its recorded %Inh.
| smiles-str | target-or-system | %Inh |
| --- | --- | --- |
| CCn1cnc2c(N)ncnc21 | ANKK1 | 0% |
| c1ccc(-c2n[nH]cc2-c2ccnc3ccccc23)nc1 | ANKK1 | 22% |
| CC(C)(C)n1cnc2c(N)ncnc21 | ANKK1 | 0% |
| O=C(NCCNc1ccnc(Nc2ccc(F)cc2)n1)Nc1ccccc1F | ANKK1 | 0% |
| COC(=O)Nc1nc2cc(Oc3ccc(NC(=O)Nc4cc(F)ccc4F)cc3)ccc2[nH]1.Cl | ANKK1 | 12% |

stdin: Fill blank: measured %Inh of the compound "Cc1ccc(C(=O)NCC(N)=O)cc1-n1c(C)cc(OCc2ccc(F)cc2F)c(Br)c1=O" is ____.
stdout: 0%

stdin: Also need "O=c1cc(N2CCOCC2)nc2n(Cc3cccc(Cl)c3Cl)c(C3CC3)nn12" , thanks.
stdout: 0%

stdin: Also need "NS(=O)(=O)c1cccc(-c2ccc3nccc(-c4cccc(S(N)(=O)=O)c4)c3c2)c1" , thanks.
stdout: 0%

stdin: Also need "Cc1cccc(Cn2ccn3c(=O)cc(N4CCOCC4)nc23)c1" , thanks.
stdout: 19%

Attribution: paper PMC5540273
